TEST SYSTEM: T1, Biotinylated human BSSL (human, UniProt P19835 21-753, Biotinylated on glycosacarides, 30-40 biotin/BSSL)
T1 construct: hBSSL biotinylated in house; also called b-hBSSL; human BSSL-biotin
T1 sequence: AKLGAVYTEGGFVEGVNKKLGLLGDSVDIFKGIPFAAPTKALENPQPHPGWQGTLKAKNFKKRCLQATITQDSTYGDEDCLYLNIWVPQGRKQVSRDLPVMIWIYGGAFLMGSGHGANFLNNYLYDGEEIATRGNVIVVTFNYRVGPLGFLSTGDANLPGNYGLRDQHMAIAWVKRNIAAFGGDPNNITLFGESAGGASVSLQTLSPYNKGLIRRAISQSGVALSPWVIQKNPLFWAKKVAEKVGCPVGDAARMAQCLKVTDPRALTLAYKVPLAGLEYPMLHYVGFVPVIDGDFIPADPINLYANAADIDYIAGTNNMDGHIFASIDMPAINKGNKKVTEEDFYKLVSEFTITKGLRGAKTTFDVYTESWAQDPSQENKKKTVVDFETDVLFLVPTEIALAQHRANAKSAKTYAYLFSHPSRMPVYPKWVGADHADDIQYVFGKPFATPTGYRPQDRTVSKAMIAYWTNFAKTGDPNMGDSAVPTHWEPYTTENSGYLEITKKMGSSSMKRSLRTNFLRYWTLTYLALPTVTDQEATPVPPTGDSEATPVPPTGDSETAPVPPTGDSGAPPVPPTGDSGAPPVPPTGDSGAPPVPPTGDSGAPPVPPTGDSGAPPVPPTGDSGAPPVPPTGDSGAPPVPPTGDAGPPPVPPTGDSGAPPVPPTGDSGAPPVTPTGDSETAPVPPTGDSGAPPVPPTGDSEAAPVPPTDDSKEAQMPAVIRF
TEST SUMMARY: flow cytometry displacement assay; 1.5 ug antibody, 1 ug b-hBSSL
MEASURE: percentage reduction of b-hBSSL binding to CD14+ monocytes (%)
Answers are plain numbers, in %.

S-SL048-74 hIgG4 S228P (antibody, V domains shown, Tested as human IgG4 S228P) VH: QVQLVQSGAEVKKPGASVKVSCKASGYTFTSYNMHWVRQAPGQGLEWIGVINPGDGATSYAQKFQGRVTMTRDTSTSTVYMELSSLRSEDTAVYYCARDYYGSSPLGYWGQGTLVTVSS VL: DIQMTQSPSSLSASVGDRVTITCRASQSISYLNWYQQKPGKAPKLLIYAASSLASGVPSRFSGSGSGTDFTLTISSLQPEDFATYYCHQRSSSPTFGQGTKLEIK
29

percentage reduction of b-hBSSL binding to CD14+ monocytes measured on S-SL048-38 hIgG4 S228P (antibody, V domains shown, Tested as human IgG4 S228P) VH: QVQLVQSGAEVKKPGASVKVSCKASGYTFTSYNMHWVRQAPGQGLEWMGVINPGDGATSYAQKFQGRVTMTRDTSTSTVYMELSSLRSEDTAVYYCARDYYGSSPLGYWGQGTLVTVSS VL: DIQMTQSPSSLSASVGDRVTITCRASPSISYLNWYQQKPGKAPKLLIYATSSLASGVPSRFSGSGSGTDFTLTISSLQPEDFATYYCQQRSSSPTFGQGTKLEIK = 52
